# measurement notes: Test on saturated solubility in water (HPLC)
# Assay type: physicochemical
# run parameters: water, 37 °C, thermodynamic from solid, 100 r/min, oscillated 1 h
measure name: solubility at 1 h
Quick note: unit goes after the number.

# solubility at 1 h lookup, item CCOC(=O)C(c1ccccc1)C1N[C@H](C(=O)O)CS1 (stereo partly shown)
115 µg/mL

* * *

# measurement notes: Test on saturated solubility in water (HPLC)
# Assay type: physicochemical
# run parameters: water, 37 °C, thermodynamic from solid
# Excerpt: Test on Saturated Solubility in Water: […]
measure name: solubility

# solubility lookup, item CCOC(=O)C(c1ccccc1)C1N[C@H](C(=O)O)CS1 (stereo partly shown)
≥ 240 µg/mL

* * *

# measurement notes: Test on saturated solubility in water (HPLC)
# Type: physicochemical
# run parameters: water, 37 °C, thermodynamic from solid, 100 r/min, oscillated 18 h
measure name: solubility at 18 h (µg/mL)
Write the value in µg/mL as a bare number.

# solubility at 18 h lookup, item CCOC(=O)C(c1ccccc1)C1N[C@H](C(=O)O)CS1 (stereo partly shown)
241
